- Tested on: Echinochloa crus-galli
- test.summary: Herbicidal activity against Echinochloa crus-galli (barnyard grass) assessed as inhibition of seedling growth at 10 ug/ml at 28 +/- 1 degC measured after 65 hr by cup test
- Assay type: functional
If the reported inhibition at 10 µg/mL equals or exceeds 60%, assign Y. If not, assign N.

item_smiles=COc1ccc(/C(O)=C2\C(=O)CN(C3CC3)C2=O)cc1OC subject_of_test="Echinochloa crus-galli" answer_label=N
item_smiles=COCCOCOc1cccc(/C(O)=C2\C(=O)CN(C3CC3)C2=O)c1 subject_of_test="Echinochloa crus-galli" answer_label=N
item_smiles=CCCc1ccc(/C(O)=C2\C(=O)CN(C3CC3)C2=O)cc1 subject_of_test="Echinochloa crus-galli" answer_label=N
item_smiles=Cc1ccc(/C(O)=C2\C(=O)CN(C(C)C)C2=O)cc1 subject_of_test="Echinochloa crus-galli" answer_label=Y
item_smiles=Cc1ccccc1/C(O)=C1\C(=O)CN(C(C)C)C1=O subject_of_test="Echinochloa crus-galli" answer_label=Y
item_smiles=CCCc1ccc(/C(O)=C2\C(=O)CN(C(C)C)C2=O)cc1 subject_of_test="Echinochloa crus-galli" answer_label=N
item_smiles=CC(C)c1ccc(/C(O)=C2\C(=O)CN(C(C)C)C2=O)cc1 subject_of_test="Echinochloa crus-galli" answer_label=N
item_smiles=Cc1ccc(/C(O)=C2\C(=O)CN(C(C)(C)C)C2=O)cc1 subject_of_test="Echinochloa crus-galli" answer_label=N

Input line: I'd appreciate it if you could say whether COc1ccc(/C(O)=C2\C(=O)CN(C(C)(C)C)C2=O)cc1 has inhibition at 10 µg/mL at least equal to 60%.
Output line: Y

Input line: I'd appreciate it if you could say whether COCCOCOc1ccc(/C(O)=C2\C(=O)CN(C(C)C)C2=O)cc1 has inhibition at 10 µg/mL at least equal to 60%.
Output line: N

Input line: I'd appreciate it if you could say whether Cc1cc(C)cc(/C(O)=C2\C(=O)CN(C(C)C)C2=O)c1 has inhibition at 10 µg/mL at least equal to 60%.
Output line: N

Input line: I'd appreciate it if you could say whether CCCCCc1ccc(/C(O)=C2\C(=O)CN(C(C)C)C2=O)cc1 has inhibition at 10 µg/mL at least equal to 60%.
Output line: N

Input line: I'd appreciate it if you could say whether COc1ccccc1/C(O)=C1\C(=O)CN(C(C)C)C1=O has inhibition at 10 µg/mL at least equal to 60%.
Output line: Y

Input line: I'd appreciate it if you could say whether Cc1cc(C)cc(/C(O)=C2\C(=O)CN(C3CC3)C2=O)c1 has inhibition at 10 µg/mL at least equal to 60%.
Output line: N

Input line: I'd appreciate it if you could say whether COc1ccc(/C(O)=C2\C(=O)CN(C3CC3)C2=O)c(OC)c1 has inhibition at 10 µg/mL at least equal to 60%.
Output line: Y

Input line: I'd appreciate it if you could say whether CC(C)c1ccc(/C(O)=C2\C(=O)CN(C(C)(C)C)C2=O)cc1 has inhibition at 10 µg/mL at least equal to 60%.
Output line: N

Input line: I'd appreciate it if you could say whether CC(C)(C)c1ccc(/C(O)=C2\C(=O)CN(C(C)(C)C)C2=O)cc1 has inhibition at 10 µg/mL at least equal to 60%.
Output line: N

Input line: I'd appreciate it if you could say whether COc1ccc(/C(O)=C2\C(=O)CN(C(C)C)C2=O)cc1OC has inhibition at 10 µg/mL at least equal to 60%.
Output line: Y

Input line: I'd appreciate it if you could say whether COCCOCOc1cccc(/C(O)=C2\C(=O)CN(C(C)C)C2=O)c1 has inhibition at 10 µg/mL at least equal to 60%.
Output line: N
